Item-by-item account of conversion of 0708-30 by PAD2, 100 µM inhibitor
# Experimental system: recombinant human PAD2 (human, UniProt Q9Y2J8 1-665)
# Sequence (Q9Y2J8 whole entry): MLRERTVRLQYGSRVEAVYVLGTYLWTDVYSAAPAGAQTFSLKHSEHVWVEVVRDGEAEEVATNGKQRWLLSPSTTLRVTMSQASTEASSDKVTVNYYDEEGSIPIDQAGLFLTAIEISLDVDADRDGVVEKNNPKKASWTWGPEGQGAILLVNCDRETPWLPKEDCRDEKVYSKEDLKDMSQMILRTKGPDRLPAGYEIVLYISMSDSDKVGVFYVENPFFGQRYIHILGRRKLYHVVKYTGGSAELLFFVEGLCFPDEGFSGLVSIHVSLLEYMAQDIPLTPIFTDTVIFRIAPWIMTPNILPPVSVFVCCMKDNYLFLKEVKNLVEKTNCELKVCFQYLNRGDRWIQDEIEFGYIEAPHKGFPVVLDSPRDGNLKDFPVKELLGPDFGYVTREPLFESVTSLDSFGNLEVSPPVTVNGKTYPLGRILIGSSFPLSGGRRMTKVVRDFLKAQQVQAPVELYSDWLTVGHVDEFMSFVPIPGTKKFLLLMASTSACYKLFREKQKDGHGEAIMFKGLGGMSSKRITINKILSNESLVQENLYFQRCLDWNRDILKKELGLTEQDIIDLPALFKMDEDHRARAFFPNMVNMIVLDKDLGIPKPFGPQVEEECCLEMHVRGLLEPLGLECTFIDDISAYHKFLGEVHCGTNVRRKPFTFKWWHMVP
# Assay procedure: cell-based or functional assay
Numbered stars: 1 amine (or outer) side, 2 acyl side, 3 side chain; on linkers, the order of the positions; unused ones are H or OH. Square brackets hold non-standard residues; d marks the D form. Orn(CA) = ornithine chloroamidine, O(CA), N=C(CCl)NCCC[C@H](N[*:1])C(=O)[*:2]; Orn(fluoroacetimidoyl) = N=C(CF)NCCC[C@H](N)C(=O)O
# output: number + unit

Binder: Ac-FFDSHKFD[Orn(fluoroacetimidoyl)]DFIYSD-NH2 (SMILES CC[C@H](C)[C@H](NC(=O)[C@H](Cc1ccccc1)NC(=O)[C@H](CC(=O)O)NC(=O)[C@H](CCCNC(=N)CF)NC(=O)[C@H](CC(=O)O)NC(=O)[C@H](Cc1ccccc1)NC(=O)[C@H](CCCCN)NC(=O)[C@H](Cc1c[nH]cn1)NC(=O)[C@H](CO)NC(=O)[C@H](CC(=O)O)NC(=O)[C@H](Cc1ccccc1)NC(=O)[C@H](Cc1ccccc1)NC(C)=O)C(=O)N[C@@H](Cc1ccc(O)cc1)C(=O)N[C@@H](CO)C(=O)N[C@@H](CC(=O)O)C(N)=O) [0741-03FA]
Reported measurement: 6%

Next, consider the following binder.
Lookup: Identify conversion of 0708-30 by PAD2, 100 µM inhibitor associated with the binder Ac-DSHKFD[Orn(CA)]DFIYSD-NH2 (SMILES CC[C@H](C)[C@H](NC(=O)[C@H](Cc1ccccc1)NC(=O)[C@H](CC(=O)O)NC(=O)[C@H](CCCNC(=N)CCl)NC(=O)[C@H](CC(=O)O)NC(=O)[C@H](Cc1ccccc1)NC(=O)[C@H](CCCCN)NC(=O)[C@H](Cc1c[nH]cn1)NC(=O)[C@H](CO)NC(=O)[C@H](CC(=O)O)NC(C)=O)C(=O)N[C@@H](Cc1ccc(O)cc1)C(=O)N[C@@H](CO)C(=O)N[C@@H](CC(=O)O)C(N)=O) [0741-05CA]
Found: 31%

The reported measurements were obtained from patent US20110142868A1.
